- System: MARIMO
- assay.name: cell viability relative to vehicle control; higher = less cytotoxic;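 further: after 48 h exposure read by CellTiter-Glo luminescence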
- applied.conditions: 10 µM; SRSF2 genotype: SRSF2 wt/wt
readout: cell viability (%)
Numbers only here, please. The scale is %.

| molecule | cell viability [%] |
| --- | --- |
| COc1ccccc1-c1cc(Nc2cccc(CS(N)(=O)=O)c2)ncn1 | 45.6 |
| Cc1cc(=O)oc2c(C=O)c(O)ccc12 | 97.4 |
| CNC(=O)c1cc(Oc2ccc(NC(=O)Nc3ccc(Cl)c(C(F)(F)F)c3)c(F)c2)ccn1 | 28 |

input: Output cell viability of CC(C)Oc1ccc2c(=O)c(-c3ccccc3)coc2c1
output: 88.1

input: Output cell viability of COc1cc([C@@H]2c3cc4c(cc3[C@@H](O[C@@H]3O[C@@H]5CO[C@@H](C)O[C@H]5[C@H](O)[C@H]3O)[C@H]3COC(=O)[C@H]23)OCO4)cc(OC)c1O [Etoposide (VP-16)]
output: 6.84

input: Output cell viability of NC(=O)[C@@H](CCC(F)(F)F)N(Cc1ccc(-c2ncon2)cc1F)S(=O)(=O)c1ccc(Cl)cc1
output: 96.6

input: Output cell viability of Cn1c([N+](=O)[O-])cnc1COC(N)=O
output: 97.3

input: Output cell viability of C[C@H](NC(=O)c1c(N)nn2cccnc12)c1cc2cccc(C#Cc3cnn(C)c3)c2c(=O)n1-c1ccccc1
output: 63.4

---

- Test system: MOLM14
- assay.name: cell viability relative to vehicle control; higher = less cytotoxic
- applied.conditions: 10 µM; SRSF2 genotype: SRSF2 P95H/wt
readout: cell viability (%)
Numbers only here, please. The scale is %.

The examples below pair each entry with its known result.
| compound | output.unit | cell viability |
| --- | --- | --- |
| Cn1c(-c2ccccc2C(F)(F)F)nnc1C12CCC(c3noc(C4CC(F)(F)C4)n3)(CC1)CC2 | % | 79.8 |
| CC(C)c1cc(C(=O)N2Cc3ccc(CN4CCN(C)CC4)cc3C2)c(O)cc1O | % | 3.31 |
| O=C([O-])[O-].[Li+].[Li+] [Lithium carbonate] | % | 105 |

# ---- query compound ----
input: Output cell viability of C=CCC(=NOS(=O)(=O)O)S[C@@H]1O[C@H](CO)[C@@H](O)[C@H](O)[C@H]1O (stereo in doubt) [Sinigrin]
output: 94.1

---

- System: MARIMO
- assay.name: cell viability relative to vehicle control; higher = less cytotoxic
- applied.conditions: 10 µM; SRSF2 genotype: SRSF2 P95H/wt
Structures can show the parent of a compound that is named as a salt.
Threshold 90%. cell viability below it: Fulfilled. cell viability at it or above: Not fulfilled.

| compound | category.label |
| --- | --- |
| Cc1nc(Nc2ncc(C(=O)Nc3c(C)cccc3Cl)s2)cc(N2CCN(CCO)CC2)n1 | Fulfilled |
| CC(C(=O)O)c1ccc(C(=O)c2cccs2)cc1 (stereo not drawn) | Not fulfilled |
| O=C1NC(=O)/C(=C/c2cccc(C(F)(F)F)c2)S1 | Not fulfilled |

input: Record C[C@@H](Nc1cc(F)cc(F)c1)c1cc(C(=O)N(C)C)cc2c(=O)cc(N3CCOCC3)oc12 : is its cell viability strictly below 90%?
output: Fulfilled

input: Record Cc1cnc(NC(=O)Nc2cc(Br)c(C)cc2OC[C@@H]2CNCCO2)cn1 : is its cell viability strictly below 90%?
output: Fulfilled

input: Record CCOC(=O)C1=C[C@@H](OC(CC)CC)[C@H](NC(C)=O)[C@@H](N)C1 [Oseltamivir Phosphate] : is its cell viability strictly below 90%?
output: Not fulfilled

input: Record O=C(c1ccc(/C=C/c2n[nH]c3ccccc23)cc1)N1CCNCC1 : is its cell viability strictly below 90%?
output: Fulfilled

input: Record CNC(CC(=O)O)C(=O)O (stereo not drawn) : is its cell viability strictly below 90%?
output: Not fulfilled

input: Record OC[C@@H](O)[C@@H](O[C@H]1O[C@H](CO)[C@@H](O)[C@H](O)[C@H]1O)[C@H](O)[C@@H](O)CO : is its cell viability strictly below 90%?
output: Not fulfilled

input: Record O=C(O)CCC(=O)Nc1ccc(Br)cn1 : is its cell viability strictly below 90%?
output: Not fulfilled

input: Record CC(C)c1ccc(C=O)cc1 : is its cell viability strictly below 90%?
output: Not fulfilled

input: Record Nc1c(Br)cc(Br)cc1CN[C@H]1CC[C@H](O)CC1 [Ambroxol HCl] : is its cell viability strictly below 90%?
output: Not fulfilled

---

- Test system: MARIMO
- assay.name: cell viability relative to vehicle control; higher = less cytotoxic
- applied.conditions: 10 µM; SRSF2 genotype: SRSF2 P95H/wt
Where a name gives a salt, the structure may show the parent alone.
readout: cell viability (%)
Numbers only here, please. The scale is %.

input: Output cell viability of CC(C)[C@H](NC(=O)OCc1ccccc1)C(=O)N[C@@H](C)C(=O)N[C@@H](CC(=O)O)C(=O)CF
output: 99.8

input: Output cell viability of O=C(Nc1ccc(Cl)cc1)C1CCCN(C(=O)c2cccc(-c3ccco3)c2)C1 (configuration not stated)
output: 52.6

input: Output cell viability of COC(=O)C1=C(C)NC(C)=C(C(=O)OCC(C)C)C1c1ccccc1[N+](=O)[O-] (configuration not stated) [Nisoldipine]
output: 56.3

input: Output cell viability of CC(=O)CCc1ccc(OC(C)=O)cc1 [Pherocon (4-(4-Acetoxyphenyl)-2-butanone)]
output: 103

input: Output cell viability of C/C=C(/C)C(=O)OC(C)(C)[C@@H]1Cc2c(ccc3ccc(=O)oc23)O1 [Columbianadin]
output: 87.8

input: Output cell viability of CN1CCN2c3ncccc3Cc3ccccc3C2C1 (configuration not stated) [Mirtazapine (Remeron, Avanza)]
output: 93.2

input: Output cell viability of CC(C)CC(CC(=O)NO)C(=O)N[C@@H](Cc1ccc2ccccc2c1)C(=O)N[C@@H](C)C(=O)NCCN (some centres not stated)
output: 112

input: Output cell viability of O=C(Nc1ccccc1)c1cc([N+](=O)[O-])ccc1Cl
output: 86.8

input: Output cell viability of CC(=O)Nc1ccc(C(=O)Nc2ccccc2N)cc1 [CI994 (Tacedinaline)]
output: 37.9

input: Output cell viability of CS(=O)(=O)N1CCc2c(-c3cnc(N)nc3)nc(N3CCOCC3)nc21
output: 53.6

input: Output cell viability of O=c1[nH]cc(F)c(=O)[nH]1 [Adrucil (Fluorouracil)]
output: 68.5

input: Output cell viability of COC[C@H]1C[C@@H](c2nc(-c3ccc4c(c3)COc3cc5c(ccc6nc([C@@H]7CC[C@H](C)N7C(=O)[C@@H](NC(=O)OC)C(C)C)[nH]c65)cc3-4)c[nH]2)N(C(=O)[C@H](NC(=O)OC)c2ccccc2)C1 [Velpatasvir]
output: 88.2

input: Output cell viability of CC(=O)Nc1cccc(-n2c(=O)n(C3CC3)c(=O)c3c(Nc4ccc(I)cc4F)n(C)c(=O)c(C)c32)c1
output: 39.6

input: Output cell viability of Cc1ccc(CN(CC(O)COc2cccc3[nH]ccc23)C(C)(C)C)cc1 (configuration not stated)
output: 67

input: Output cell viability of O=c1c(O)c(-c2ccc(O)c(O)c2)oc2cc(O)cc(O)c12 [Quercetin (Sophoretin)]
output: 93.9

input: Output cell viability of O=c1[nH]c(=O)c2[nH]cnc2[nH]1 [2,6-Dihydroxypurine]
output: 106

input: Output cell viability of CNC[C@H](O)c1cccc(O)c1 [Phenylephrine hydrochloride]
output: 104

---

- Tested on: MARIMO
- assay.name: cell viability relative to vehicle control; higher = less cytotoxic
- applied.conditions: 10 µM; SRSF2 genotype: SRSF2 wt/wt
Structures can show the parent of a compound that is named as a salt.
Measured cell viability accompanies every entry in the list below.
Numbers only here, please. The scale is %.

The examples below pair each entry with its known result.
| compound | cell viability, % |
| --- | --- |
| COc1cc(OC)c(C(=O)CCCN2CCCC2)c(OC)c1 [Buflomedil HCl] | 102 |
| CNc1ncc2cc(-c3cc(NC(=O)NCCC(C)(C)C)c(F)cc3C)c(C)nc2n1 | 34.9 |
| CC(=O)O[C@]1(C(C)=O)CC[C@H]2[C@@H]3C[C@H](C)C4=CC(=O)C=C[C@]4(C)[C@@]3(F)[C@@H](O)C[C@@]21C [Fluorometholone Acetate] | 105 |
| C=C1CC23CCC4C(C)(C(=O)OC5OC(CO)C(O)C(O)C5O)CCCC4(C)C2CCC1(OC1OC(CO)C(O)C(OC2OC(CO)C(O)C(O)C2O)C1OC1OC(C)C(O)C(O)C1O)C3 (configuration not stated) [Rebaudioside C] | 111 |
| COC(=O)[C@]12CCC(C)(C)C[C@H]1[C@H]1C(=O)C=C3[C@@]4(C)C=C(C#N)C(=O)C(C)(C)[C@@H]4CC[C@@]3(C)[C@]1(C)CC2 [Bardoxolone Methyl] | 0.28 |
| Cc1cc(C)c(S(=O)(=O)n2cc(C)cc2C)c(C)c1 | 88.4 |

# ---- query compound ----
input: Output cell viability of COc1ccccc1S(=O)(=O)Nc1ccc2c(c1)CN(C)C(=O)N2
output: 46.6
